The measured values listed here are drawn from paper PMC6886544.

# Test system: A431 cells (EGFR wild type)
# measurementDescription: CellTiter-Glo viability assay, A431
# testConditions: Homo sapiens, A-431, 96 h, read-out: EGFR CTG EC50 A431, A431, 96 hours, CellTiter-Glo
pEC50: −log10 of the molar value.
// reported pEC50 per item

{"compound": "C=CC(=O)Nc1cccc(-c2c(-c3ccc(N4CCN(C)CC4)cc3)[nH]c3ncn(CCSC)c(=O)c23)c1 [Compound 29e]", "pEC50": 5.73}
{"compound": "CCC(=O)Nc1cccc(-c2c(-c3ccc(N4CCN(C)CC4)cc3)[nH]c3ncn(C)c(=O)c23)c1 [Compound 19b]", "pEC50": 5.01}
{"compound": "C=CC(=O)Nc1cccc(-c2c(-c3ccc(N4CCN(C)CC4)cc3)[nH]c3ncnc(OCCCC)c23)c1 [Compound 19d]", "pEC50": 5.81}
{"compound": "C=CC(=O)Nc1cccc(-c2c(-c3ccc(N4CCN(C)CC4)cc3)[nH]c3ncnc(OCC)c23)c1 [Compound 19c]", "pEC50": 6.12}
{"compound": "C=CC(=O)Nc1cccc(-c2c(-c3ccc(N4CCN(C)CC4)cc3)[nH]c3ncn(C)c(=O)c23)c1 [Compound 29a]", "pEC50": 5.94}
{"compound": "C=CC(=O)Nc1cccc(-c2c(-c3ccc(N4CCN(C)CC4)cc3)[nH]c3ncnc(OC4CCCC4)c23)c1 [Compound 19f]", "pEC50": 5.75}
{"compound": "C#CCn1cnc2[nH]c(-c3ccc(N4CCN(C)CC4)cc3)c(-c3cccc(NC(=O)C=C)c3)c2c1=O [Compound 29c]", "pEC50": 5.99}

----------
# measurementDescription: Caco-2 assay
# Type: in vitro ADME
# testConditions: human, Caco-2; apical to basolateral, 5 μM, pH 7.4, 2 hours; read-out: Caco-2: Papp AB
# reported Papp A→B at 2 h, 5 μM; entries follow

{"compound": "C=CC(=O)Nc1cccc(-c2c(-c3ccc(N4CCN(C)CC4)cc3)[nH]c3ncnc(OCC(C)C)c23)c1 [Compound 19h]", "outputUnit": "×10⁻⁶ cm/s", "Papp A→B at 2 h, 5 μM": 1.2}
{"compound": "C=CC(=O)Nc1cc(Nc2nccc(-c3cn(C)c4ccccc34)n2)c(OC)cc1N(C)CCN(C)C [Osimertinib, osimertinib, reference compound]", "outputUnit": "×10⁻⁶ cm/s", "Papp A→B at 2 h, 5 μM": 5}
{"compound": "C=CC(=O)Nc1cccc(Oc2nc(Nc3ccc(N4CCN(C)CC4)cc3OC)ncc2Cl)c1 [WZ4002, reference compound]", "outputUnit": "×10⁻⁶ cm/s", "Papp A→B at 2 h, 5 μM": 4.9}

----------
# targetDesc: EGFR-L858R/T790M (Homo sapiens, UniProt P00533, L858R/T790M)
# Sequence (P00533 25-1210 T790M/L858R): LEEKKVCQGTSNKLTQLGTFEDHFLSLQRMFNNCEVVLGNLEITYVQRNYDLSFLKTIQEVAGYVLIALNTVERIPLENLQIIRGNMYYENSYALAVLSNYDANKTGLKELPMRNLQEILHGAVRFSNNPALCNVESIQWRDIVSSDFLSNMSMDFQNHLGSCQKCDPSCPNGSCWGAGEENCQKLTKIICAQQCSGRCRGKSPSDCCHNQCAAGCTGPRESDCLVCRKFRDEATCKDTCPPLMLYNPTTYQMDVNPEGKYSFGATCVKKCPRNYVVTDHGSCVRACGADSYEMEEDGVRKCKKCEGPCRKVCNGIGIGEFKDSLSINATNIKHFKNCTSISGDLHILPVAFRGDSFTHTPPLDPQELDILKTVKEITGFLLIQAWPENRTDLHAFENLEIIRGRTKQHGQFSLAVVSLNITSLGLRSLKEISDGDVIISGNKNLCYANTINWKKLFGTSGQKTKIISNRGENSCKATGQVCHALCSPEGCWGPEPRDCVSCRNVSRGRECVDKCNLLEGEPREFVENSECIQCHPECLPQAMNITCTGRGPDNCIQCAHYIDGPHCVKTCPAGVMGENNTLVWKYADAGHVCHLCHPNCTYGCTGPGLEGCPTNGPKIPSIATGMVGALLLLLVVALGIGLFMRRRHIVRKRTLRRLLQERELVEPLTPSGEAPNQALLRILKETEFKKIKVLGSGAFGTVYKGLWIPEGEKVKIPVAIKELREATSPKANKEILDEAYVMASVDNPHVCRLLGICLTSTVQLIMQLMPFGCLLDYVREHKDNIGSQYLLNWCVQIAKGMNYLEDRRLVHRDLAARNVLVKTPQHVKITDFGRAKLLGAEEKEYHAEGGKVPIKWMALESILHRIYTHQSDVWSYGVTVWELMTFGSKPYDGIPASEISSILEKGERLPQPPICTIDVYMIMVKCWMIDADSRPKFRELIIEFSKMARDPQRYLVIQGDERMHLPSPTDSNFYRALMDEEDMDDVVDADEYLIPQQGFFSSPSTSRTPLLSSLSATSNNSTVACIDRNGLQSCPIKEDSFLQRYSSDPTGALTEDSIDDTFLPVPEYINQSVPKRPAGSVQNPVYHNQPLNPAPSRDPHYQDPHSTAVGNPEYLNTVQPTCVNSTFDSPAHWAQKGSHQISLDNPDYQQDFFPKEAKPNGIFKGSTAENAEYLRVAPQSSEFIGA
# measurementDescription: Kinetic characterization (Ki, kinact), EGFR-L858R/T790M
pKi: −log10 of the molar value.
pKi reference

{"compound": "C=CC(=O)Nc1cccc(-c2c(-c3ccc(N4CCN(C)CC4)cc3)[nH]c3ncnc(OCC(C)C)c23)c1 [Compound 19h]", "pKi": 9.40}
{"compound": "C=CC(=O)Nc1cccc(-c2c(-c3ccc(N4CCN(C)CC4)cc3)[nH]c3ncn(C(C)C)c(=O)c23)c1 [Compound 29g]", "pKi": 7.82}

----------
# targetDesc: EGFR-wt (Homo sapiens)
# Sequence (P00533 25-1210): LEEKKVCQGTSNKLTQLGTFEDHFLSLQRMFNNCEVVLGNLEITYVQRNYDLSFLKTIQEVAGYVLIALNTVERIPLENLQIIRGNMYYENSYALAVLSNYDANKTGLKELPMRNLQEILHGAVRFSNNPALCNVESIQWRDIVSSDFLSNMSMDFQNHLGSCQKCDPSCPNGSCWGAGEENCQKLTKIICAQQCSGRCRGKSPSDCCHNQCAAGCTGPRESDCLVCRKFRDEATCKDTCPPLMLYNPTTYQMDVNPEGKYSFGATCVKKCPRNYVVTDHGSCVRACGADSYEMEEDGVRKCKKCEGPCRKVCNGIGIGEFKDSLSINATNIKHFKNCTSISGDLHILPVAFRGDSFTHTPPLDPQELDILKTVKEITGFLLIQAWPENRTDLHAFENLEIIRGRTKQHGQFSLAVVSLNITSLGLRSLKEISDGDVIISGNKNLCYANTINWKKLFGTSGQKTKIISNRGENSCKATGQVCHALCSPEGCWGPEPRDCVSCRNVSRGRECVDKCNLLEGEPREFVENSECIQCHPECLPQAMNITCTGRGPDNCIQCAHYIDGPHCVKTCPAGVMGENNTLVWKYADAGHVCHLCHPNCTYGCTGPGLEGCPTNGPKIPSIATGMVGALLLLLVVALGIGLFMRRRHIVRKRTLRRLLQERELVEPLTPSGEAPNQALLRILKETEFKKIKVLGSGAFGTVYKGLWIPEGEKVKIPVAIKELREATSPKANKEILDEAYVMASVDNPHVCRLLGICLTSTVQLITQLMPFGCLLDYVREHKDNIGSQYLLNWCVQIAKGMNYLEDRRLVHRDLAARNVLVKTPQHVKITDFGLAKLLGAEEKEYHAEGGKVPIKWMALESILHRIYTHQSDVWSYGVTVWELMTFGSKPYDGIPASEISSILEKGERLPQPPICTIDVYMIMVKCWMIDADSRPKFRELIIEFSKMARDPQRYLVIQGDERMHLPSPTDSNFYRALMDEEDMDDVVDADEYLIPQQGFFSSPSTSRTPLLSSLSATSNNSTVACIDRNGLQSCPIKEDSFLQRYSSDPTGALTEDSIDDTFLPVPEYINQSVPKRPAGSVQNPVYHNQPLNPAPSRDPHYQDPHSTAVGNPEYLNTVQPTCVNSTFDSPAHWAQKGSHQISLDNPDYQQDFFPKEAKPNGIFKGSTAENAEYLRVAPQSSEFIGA
# measurementDescription: HTRF KinEASE-TK activity-based assay, EGFR-wt
# testConditions: EGFR HTRF IC50 wt, ATP at Km (9.5 µM), 30 min preincubation; mean ± SD of three independent measurements in duplicates
pIC50: −log10 of the molar value.
readout: pIC50

{"compound": "C=CC(=O)Nc1cccc(-c2c(-c3ccc(CN4CCN(C)CC4)cc3)[nH]c3ncnc(OC)c23)c1 [Compound 17a]", "readout": "pIC50", "value": 7.82}
{"compound": "C=CC(=O)Nc1cccc(-c2c(-c3ccccc3)[nH]c3ncnc(OC)c23)c1 [Compound 1a]", "readout": "pIC50", "value": 5.92}
{"compound": "C=CC(=O)Nc1cccc(-c2c(-c3ccc(N4CCN(C)CC4)cc3)[nH]c3ncn(C4CCCCC4)c(=O)c23)c1 [Compound 29j]", "readout": "pIC50", "value": 9.40}
{"compound": "C=CC(=O)Nc1cccc(-c2c(-c3ccc(N4CCN(C)CC4)cc3)[nH]c3ncnc(OCC)c23)c1 [Compound 19c]", "readout": "pIC50", "value": 9.70}
{"compound": "C=CC(=O)Nc1cccc(-c2c(-c3ccc(N4CCN(C)CC4)cc3)[nH]c3ncn(CC)c(=O)c23)c1 [Compound 29b]", "readout": "pIC50", "value": 9.40}
{"compound": "COc1ncnc2[nH]c(-c3ccc(C)cc3)c(-c3cccc(NC(=O)C=CCN(C)C)c3)c12 [Compound 10b]", "readout": "pIC50", "value": 7.22}
{"compound": "C=CC(=O)Nc1cccc(-c2c(-c3ccc(N4CCN(C)CC4)cc3)[nH]c3ncn(C4CCCC4)c(=O)c23)c1 [Compound 29i]", "readout": "pIC50", "value": 10.00}

----------
Catalogue of compounds with associated fraction unbound at 6 h, 5 µM
# measurementDescription: Plasma protein binding, mouse
# Assay type: in vitro ADME
# testConditions: equilibrium dialysis, 37 °C
readout: fraction unbound at 6 h, 5 µM

{"compound": "C=CC(=O)Nc1cc(Nc2nccc(-c3cn(C)c4ccccc34)n2)c(OC)cc1N(C)CCN(C)C [Osimertinib, osimertinib, reference compound]", "value": 0.024}
{"compound": "C=CC(=O)Nc1cccc(-c2c(-c3ccc(N4CCN(C)CC4)cc3)[nH]c3ncnc(OCC(C)C)c23)c1 [Compound 19h]", "value": 0.003}
{"compound": "C=CC(=O)Nc1cccc(Oc2nc(Nc3ccc(N4CCN(C)CC4)cc3OC)ncc2Cl)c1 [WZ4002, reference compound]", "value": 0.019}

----------
# measurementDescription: In vivo pharmacokinetics in mice
# testConditions: male, RjOrl:SWISS (CD1), mouse, plasma, IP 20 mg kg^–1

{"molecule": "C=CC(=O)Nc1cccc(-c2c(-c3ccc(N4CCN(C)CC4)cc3)[nH]c3ncnc(OCC(C)C)c23)c1 [Compound 19h]", "AUC / ng·h/mL": 8.6}

----------
# measurementDescription: In vivo pharmacokinetics in mice
# testConditions: male, RjOrl:SWISS (CD1), mouse, plasma, ip, 20 mg/kg, IP 20 mg kg-1
readout: half-life (h)

{"compound": "C=CC(=O)Nc1cccc(-c2c(-c3ccc(N4CCN(C)CC4)cc3)[nH]c3ncnc(OCC(C)C)c23)c1 [Compound 19h]", "readout": "half-life", "outputUnit": "h", "value": 1.21}
